B1: GNB5 (parent)
chain: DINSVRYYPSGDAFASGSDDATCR

# Variants of: B1
# protocol_description: protein stability index of a GFP-peptide fusion (GPS, HEK-293T) (PSI 1-6); higher = more stable;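 also: lentivirally expressed fusions sorted by FACS into six bins by GFP to DsRed ratio, PSI derived from sequencing read proportions per bin multiplied by bin number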
# experimental_parameters: c terminus: a fixed tail appended
measurement_name: protein stability index
Enter the number alone.

- variant_description: "V5W"
  observed_result: 3.88

State the recorded protein stability index for this entry: `C23P`
4.14

Another variant to check: `I2T`
4.49

Please answer likewise for `D12C`
2.66
